// provenance: patent US20240301052A1

Biological target: T1, Rhesus SLC34A2 (Rhesus, UniProt F7HDA3 1-690)
T1 construct: whole, on cells
T1 sequence: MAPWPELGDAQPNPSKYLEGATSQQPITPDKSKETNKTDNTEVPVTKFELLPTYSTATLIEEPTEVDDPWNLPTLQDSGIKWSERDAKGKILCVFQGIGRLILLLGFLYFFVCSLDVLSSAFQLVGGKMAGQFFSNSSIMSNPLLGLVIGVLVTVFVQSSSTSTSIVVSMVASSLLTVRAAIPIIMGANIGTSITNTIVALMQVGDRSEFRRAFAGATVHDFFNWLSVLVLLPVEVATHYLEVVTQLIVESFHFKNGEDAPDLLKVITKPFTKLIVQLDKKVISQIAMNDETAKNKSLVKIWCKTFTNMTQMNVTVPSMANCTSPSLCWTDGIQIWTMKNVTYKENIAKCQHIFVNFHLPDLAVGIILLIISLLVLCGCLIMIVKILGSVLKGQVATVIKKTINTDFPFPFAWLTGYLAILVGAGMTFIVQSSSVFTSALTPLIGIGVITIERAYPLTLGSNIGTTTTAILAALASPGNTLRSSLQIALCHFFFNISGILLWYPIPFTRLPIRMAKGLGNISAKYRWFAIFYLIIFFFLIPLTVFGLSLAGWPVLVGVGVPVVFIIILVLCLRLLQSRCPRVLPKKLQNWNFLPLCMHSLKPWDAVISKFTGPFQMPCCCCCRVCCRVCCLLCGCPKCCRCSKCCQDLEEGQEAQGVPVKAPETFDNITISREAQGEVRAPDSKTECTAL
Test: FACS, HEK293/Rhesus SLC34A2 cells
# Top (MFI) annotations
Please give a number only; it is taken to be in MFI.

In the examples that follow, each entry is paired with its recorded Top (MFI).
Entry under test: 63A11D5B4 VH_P1/VL hIgG1 (antibody, V domains shown, PTM-derisked chimeric, hIgG1; that P1 is the SG version follows from the humanized .p1 chains; also called 63A11D5B4.p1 hIgG1) VH: QVQLQQPGAELVKPGASVKMSCRTSGYTFITYNMHWVKQTPGQGREWIGAIYPGSGDTSYNQKFKGKATLTADKSSSTAYMQLNSLTSEDSAVYYCSISTIITTGAVDYWGQGTSVTVAS VL: DIVMTQSHKFMSTSVGDRVSITCKASQDVGTAVAWYQQKAGQSPKLLIYWTSTRHTGVPDRFTGSGSGTDFTLIIRSLQSEDLADYFCQQYSRIPLTFGSGTKLEIK . Its Top (MFI) was 13800

// 63A11D5B4.p1.z15 hIgG1 (antibody, V domains shown, humanized hIgG1) VH: QVQLQQSGAEVVKPGASVKMSCKTSGYTFITYNMHWVKQAPGQGREWIGAIYPGSGDTSYNQKFKGRATLTADKSTSTAYMELSSLRSEDTAVYYCSISTIITTGAVDYWGQGTSVTVSS VL: DIQMTQSPSSLSTSVGDRVTITCKASQDVGTAVAWYQQKPGQSPKLLIYWTSTRHTGVPDRFSGSGSGTDFTLIIRSLQPEDVATYFCQQYSRIPLTFGGGTKVEIK : Top (MFI) value = 10300

Lab book: Top (MFI) of 91C9F1.p1.z6 hIgG1 (antibody, V domains shown, humanized hIgG1) VH: QVQLVQSGAEVKKPGSSVKVSCKTSGFFFTEYIIHWVRQAPGQGLEWIGGIIPNNDVTNYKQNFRGRVTLTADKSTSTAYMELSSLRSEDTAVYYCARWRNAYYSAMDSWGQGTTVTVSS VL: DIQMTQSPSSLSTSVGDRVTITCTASQDVGTAVAWYQQKPGKSPKLLIYWASTRHTGVPERFSGSGSGTDFTLTISSLQPEDVATYFCQQYRTSPLTFGGGTKVEIK noted as 8160

Form field Top (MFI), entry 30H9B8F9.p1.z9 hIgG1 (antibody, V domains shown, humanized hIgG1) VH: QVQLVQSGAEVVKPGASVKVSCKTSGYTFTTNNMHWVRQAPGQGLEWIGAIYPGSGATAYNQKFKGRVTLTADKSTSTAYMELSSLRSEATAVYYCARGMYGHGAMDYWGQGTLVTVSS VL: DIQLTQSPSFLSASVGDRVTITCKASQDVGTAVAWYQQKPGKAPKLLIYWATTRHSGVPSRFSGSGSGTEFTLTISSLQPEDFATYYCQQYSSNPLTFGQGTKLEIK : 16300

response.value for 91C9F1.p1 hIgG1 (antibody, V domains shown, PTM-derisked chimeric, hIgG1; also called 91C9F1.pl hIgG1) VH: EVQLQQSGPELVKPGTSVKISCKTSGFFFTEYIIHWVKQSHGRSLEWIGGIIPNNDVTNYKQNFRGKAALTADKSSNTAYMELRSLTSEDSAVYYCARWRNAYYSAMDSWGQGTSVTVSS VL: DIVVTQSHKFMSTSLGDRVSITCTASQDVGTAVAWYQQKPGHSPKLLIYWASTRHTGVPERFTGSGSGTDFTLTITNVQSEDLADYFCQQYRTSPLTFGVGTKLELK (field: Top (MFI)) = 7970

The binder identified as 62G10E4G8.p3.z15 hIgG1 (antibody, V domains shown, humanized hIgG1) VH: QVQLVQSGAEVVKPGASVKMSCKASGYTFPSYITHWVKQAPGQGLEWIGAIYPGNADTSYIQKFKGRATLTADKSTSTAYMELSSLRSEDTAVYYCARGTYGTSAWFTYWGQGTLVTVSS VL: EIVLTQSPATLSVSPGERATLSCRARQNIGNNLYWYQQKPGQSPRLLIKYASQSISGIPSRFSGSGSGTDFTLTISSLQSEDFAVYFCQQSFSWPLTFGQGTKLEIK registered its Top (MFI) at 14400

***
Value of Top (MFI) reported for the binder 91C9F1.p1.z10 hIgG1 (antibody, V domains shown, humanized hIgG1) VH: QVQLVQSGAEVVKPGSSVKVSCKTSGFFFTEYIIHWVRQSPGQGLEWIGGIIPNNDVTNYKQNFRGRATLTADKSTSTAYMELSSLRSEDTAVYYCARWRNAYYSAMDSWGQGTTVTVSS VL: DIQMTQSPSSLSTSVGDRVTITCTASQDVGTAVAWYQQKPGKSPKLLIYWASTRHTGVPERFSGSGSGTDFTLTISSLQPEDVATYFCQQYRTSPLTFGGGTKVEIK is 9230
